Molecular target: T1, Twinkle (mitochondrial DNA helicase) (human, UniProt Q96RR1 43-684, del1-42)
T1 sequence: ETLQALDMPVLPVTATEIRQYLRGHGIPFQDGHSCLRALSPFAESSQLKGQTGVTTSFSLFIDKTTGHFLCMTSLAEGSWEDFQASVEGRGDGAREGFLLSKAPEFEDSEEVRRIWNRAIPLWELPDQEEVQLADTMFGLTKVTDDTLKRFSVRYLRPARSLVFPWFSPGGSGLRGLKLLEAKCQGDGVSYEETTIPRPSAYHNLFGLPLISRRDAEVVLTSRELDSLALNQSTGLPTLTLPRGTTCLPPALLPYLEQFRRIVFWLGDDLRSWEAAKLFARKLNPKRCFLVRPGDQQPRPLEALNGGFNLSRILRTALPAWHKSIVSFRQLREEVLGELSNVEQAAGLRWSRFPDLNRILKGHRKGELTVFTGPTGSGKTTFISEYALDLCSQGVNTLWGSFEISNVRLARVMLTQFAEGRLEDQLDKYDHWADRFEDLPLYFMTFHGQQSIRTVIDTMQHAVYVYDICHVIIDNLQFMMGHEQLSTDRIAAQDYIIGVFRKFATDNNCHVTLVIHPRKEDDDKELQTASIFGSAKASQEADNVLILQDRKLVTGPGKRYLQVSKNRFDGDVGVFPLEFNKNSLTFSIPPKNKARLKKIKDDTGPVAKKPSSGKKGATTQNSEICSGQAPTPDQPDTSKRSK
Assay: FAM fluorescence quenching titration
Test readout: pKd
Answers are plain numbers, as −log10 of the molar value.

## Task Respond only with pKd recorded for TTTTTTTTTTTTTTTTTTTTTT (ssDNA) [BHQ1-dT22]
## Result 7.56
